assay: Cell viability / MTT assay; type: cell-based, human; details: human, S10-3 human hepatoma cells
OUTCOME MEASURE: CC50 at 120 h (µM)
Provide only the numeric value, understood in µM.

Observe how each entry below is paired with its result.
COMPOUND | UNIT ABBREV | CC50 at 120 h
CCN(CC)CCCC(C)Nc1ccnc2cc(Cl)ccc12 (stereo not shown) | µM | 4.77
NC(=O)c1ncn([C@@H]2O[C@H](CO[P@@](=O)(O)O[P@](=O)(O)OP(=O)(O)O)[C@@H](O)[C@H]2O)n1 [RTP, Ribavirin triphosphate] | µM | 169
NC(=O)c1ncn([C@@H]2O[C@H](CO)[C@@H](O)[C@H]2O)n1 | µM | 39

Alright, here's another compound for you.
stdin: Note CC50 at 120 h for the compound shown: C[C@H]1[C@H](OC(=O)CCC(=O)O)O[C@@H]2O[C@@]3(C)CC[C@H]4[C@H](C)CC[C@@H]1[C@@]24OO3 [ART, artesunate]
stdout: 189
